From: patent US20100130737A1

Structures can show the parent of a compound that is named as a salt.
The following compounds are shown together with reported melting point values.

[
  {
    "compound": "O=C(Cc1ccc(OCc2c(Cl)cccc2Cl)cc1)NC1(C(=O)O)Cc2ccc(-c3ccc(Cl)cc3)cc2C1 (stereo not shown) [Example B153]",
    "melting point": "204 to 205 °C"
  },
  {
    "compound": "O=C(CSc1nc2ccccc2s1)NC1(C(=O)O)Cc2ccc(-c3ccc(Cl)cc3)cc2C1 (stereo not shown) [Example B117]",
    "melting point": "205 to 207 °C"
  },
  {
    "compound": "O=C(Cc1ccc(OCc2ccc(Cl)cc2)cc1)NC1(C(=O)O)Cc2ccc(-c3ccc(Cl)cc3)cc2C1 (stereo not shown) [Example B143]",
    "melting point": "230 to 232 °C"
  },
  {
    "compound": "O=C(N[C@@H](Cc1ccc(OCc2ccc(F)cc2)cc1)C(=O)O)c1cc2ccc(-c3ccc(Cl)cc3)cc2o1 [Example C157]",
    "melting point": "166 to 168 °C"
  },
  {
    "compound": "Cc1c(C(=O)N[C@@H](Cc2ccc(OCc3ccoc3)cc2)C(=O)O)oc2cc(-c3ccc(Cl)cc3)ccc12 [Example C119]",
    "melting point": "108 to 110 °C"
  },
  {
    "compound": "O=C(N[C@@H](Cc1ccc(OCc2ccccc2)cc1)C(=O)O)c1cn2nc(SCc3ccccc3)ccc2n1 [Example E54]",
    "melting point": "178 to 179 °C"
  },
  {
    "compound": "O=C(Cc1ccc(OCc2ccc(F)cc2)cc1)NC1(C(=O)O)Cc2ccc(-c3ccc(Cl)cc3)cc2C1 (stereo not shown) [Example B134]",
    "melting point": "208 to 209 °C"
  },
  {
    "compound": "O=C(N[C@@H](Cc1ccc(OCc2cccc(F)c2)cc1)C(=O)O)c1cc2ccc(-c3ccc(Cl)cc3)cc2o1 [Example C153]",
    "melting point": "162 to 163 °C"
  },
  {
    "compound": "O=C(N[C@@H](Cc1ccc(OCc2ccoc2)cc1)C(=O)O)c1cn2nc(-c3ccc(Cl)cc3)ccc2n1 [Example E32]",
    "melting point": "220 °C"
  },
  {
    "compound": "O=C(N[C@@H](Cc1ccc(OCc2ccccc2F)cc1)C(=O)O)c1cn2ccc(-c3ccc(Cl)cc3)cc2n1 [Example E47]",
    "melting point": "250 to 252 °C"
  }
]

Query: Please supply the value of reported melting point for the item O=C(NC1(C(=O)O)Cc2ccc(-c3ccc(Cl)cc3)cc2C1)[C@@H](O)c1ccccc1 (stereo partly shown) [Example B179]
Response: 156 °C

Query: Read off the recorded melting point for O=C(CCSc1ccc2ccccc2c1)NC1(C(=O)O)Cc2ccc(-c3ccc(Cl)cc3)cc2C1 (stereo not shown) [Example B172]
Response: 215 °C

Query: Consider the compound Cc1nc2ccccc2n1CC(=O)NC1(C(=O)O)Cc2ccc(-c3ccc(Cl)cc3)cc2C1 (stereo not shown) (as salt: hydrochloride) [Example B159] . State its measured melting point.
Response: 284 to 285 °C

Query: Query melting point for O=C(O)CN(Cc1ccc(OCc2ccc(F)cc2)cc1)C(=O)c1cn2cc(-c3ccc(Cl)cc3)ccc2n1 [Example E13]
Response: 206 °C

Query: Read off the recorded melting point for CC(C)Oc1ccc(-c2ccc3nc(C(=O)N[C@@H](Cc4ccc(OCc5ccccc5)cc4)C(=O)O)cn3c2)cc1 [Example E45]
Response: 263 °C (dec.)

Query: Assign melting point to the following record: Cc1cc2nc(C(=O)N[C@@H](Cc3ccc(OCc4ccccc4)cc3)C(=O)O)cn2cc1-c1ccc(Cl)cc1 [Example E35]
Response: 248 to 249 °C

Query: State its melting point: O=C(Cc1ccc(Oc2ccc(F)cc2)cc1)NC1(C(=O)O)Cc2ccc(-c3ccc(Cl)cc3)cc2C1 (stereo not shown) [Example B161]
Response: 232 to 234 °C

Query: Look up and report measured melting point for this entry: Cc1nc(COc2ccc(CC(=O)NC3(C(=O)O)Cc4ccc(-c5ccc(Cl)cc5)cc4C3)cc2)cs1 (stereo not shown) [Example B152]
Response: 209 to 210 °C

Query: Return melting point for the following compound: O=C(N[C@@H](Cc1ccc(OCc2ccccc2)cc1)C(=O)O)c1nc2ccc(/C=C/c3ccccc3)cc2[nH]1 [Example C144]
Response: 247 °C (dec.)

Query: Please supply the value of reported melting point for the item CC(C)Oc1ccc(-c2ccc3sc(C(=O)N[C@@H](Cc4ccc(OCc5ccc(F)cc5)cc4)C(=O)O)cc3c2)cc1 [Example C130]
Response: 204 to 205 °C

Query: Assign melting point to the following record: O=C(NC(Cc1ccc(OCc2ccccc2F)cc1)C(=O)O)c1cn2cc(-c3ccc(Cl)cc3)ccc2n1 (stereo not shown) [Example E6]
Response: 273 °C

Query: Report melting point for Cc1ccc(COc2ccc(C[C@H](NC(=O)c3cn4ccc(-c5ccc(Cl)cc5)cc4n3)C(=O)O)cc2)cc1 [Example E59]
Response: 262 °C

Query: Quick one: give measured melting point for O=C(Cc1ccc(OCc2ccccc2)cc1)Nc1c(C(=O)O)oc2cc(-c3ccc(Cl)cc3)ccc12 [Example A23]
Response: 211 to 212 °C

Query: Determine its reported melting point: O=C(N[C@@H](Cc1ccc(OCc2ccccc2)cc1)C(=O)O)c1cc2cc(-c3ccc(Cl)cc3)ccc2o1 [Example C148]
Response: 250 to 251 °C

* * *

valueType: melting point

See these solved cases before continuing.
[
  {
    "compound": "Cc1c(C(=O)N[C@H](Cc2ccc(OCc3ccccc3)cc2)C(=O)O)oc2cc(-c3ccc(Cl)cc3)ccc12 [Example C116]",
    "readoutValue": "113 to 114 °C"
  },
  {
    "compound": "COc1cccc(COc2ccc(C[C@H](NC(=O)c3cc4ccc(-c5ccc(Cl)cc5)cc4o3)C(=O)O)cc2)c1 [Example C155]",
    "readoutValue": "150 to 151 °C"
  },
  {
    "compound": "O=C(Cc1ccc(Oc2ccccc2)cc1)NC1(C(=O)O)Cc2ccc(-c3ccc(Cl)cc3)cc2C1 (stereo not shown) [Example B183]",
    "readoutValue": "227 to 228 °C"
  },
  {
    "compound": "O=C(N[C@@H](Cc1ccc(OCc2ccoc2)cc1)C(=O)O)c1cc2cc(-c3ccc(Cl)cc3)ccc2s1 [Example C125]",
    "readoutValue": "172 to 173 °C"
  },
  {
    "compound": "O=C(N[C@@H](Cc1ccc(OCc2ccccc2)cc1)C(=O)O)c1cn2c(-c3ccc(Cl)cc3)cccc2n1 [Example E9]",
    "readoutValue": "218 °C"
  }
]

Query: Identify measured melting point corresponding to O=C(CCCSc1ccc2ccccc2c1)NC1(C(=O)O)Cc2ccc(-c3ccc(Cl)cc3)cc2C1 (stereo not shown) [Example B170]
Response: 210 to 212 °C

Query: Give the value of melting point reported for the following: O=C(Cc1ccc(OCc2ccc(F)cc2Cl)cc1)NC1(C(=O)O)Cc2ccc(-c3ccc(Cl)cc3)cc2C1 (stereo not shown) [Example B144]
Response: 200 to 201 °C

* * *

Entries annotated with measured melting point

Known results for compounds:
[
  {
    "compound": "CC(C)(C)OC(=O)N[C@@H](Cc1ccccc1)C(=O)NC1(C(=O)O)Cc2ccc(-c3ccc(Cl)cc3)cc2C1 (some centres unmarked)",
    "melting point": "140 to 142 °C"
  },
  {
    "compound": "O=C(N[C@@H](Cc1ccc(OCC2CC2)cc1)C(=O)O)c1cn2cc(-c3ccc(Cl)cc3)ccc2n1",
    "melting point": "276 °C"
  },
  {
    "compound": "O=C(N[C@@H](Cc1ccc(OCc2ccccc2)cc1)C(=O)O)c1cc2nccc(-c3ccc(Cl)cc3)n2n1",
    "melting point": "102 to 103 °C"
  },
  {
    "compound": "CS(=O)(=O)Nc1cccc(COc2ccc(CC(=O)NC3(C(=O)O)Cc4ccc(-c5ccc(Cl)cc5)cc4C3)cc2)c1 (centres unmarked)",
    "melting point": "169 to 170 °C"
  },
  {
    "compound": "O=C(N[C@@H](Cc1ccc(OCc2ccoc2)cc1)C(=O)O)c1cc2ccc(-c3ccc(Cl)cc3)cc2s1",
    "melting point": "200 to 201 °C"
  }
]

Query: Recall and state the measured melting point for CCCOc1ccc(-c2ccc3sc(C(=O)N[C@@H](Cc4ccc(OCc5ccc(F)cc5)cc4)C(=O)O)cc3c2)cc1 .
Response: 211 to 212 °C

Query: Return reported melting point. Input compound: O=C(NC(Cc1ccc(OCc2ccc(Cl)cc2)cc1)C(=O)O)c1cc2cc(C#Cc3ccccc3)ccc2s1 (centres unmarked)
Response: 216 to 221 °C

Query: Name the recorded melting point of the item O=C(CN1CCN(C(c2ccc(F)cc2)c2ccc(F)cc2)CC1)NC1(C(=O)O)Cc2ccc(-c3ccc(Cl)cc3)cc2C1 (centres unmarked) in your answer.
Response: 184 °C

Query: Give melting point for the following compound: Cc1nc(COc2ccc(CC(=O)NC3(C(=O)O)Cc4ccc(-c5ccc(Cl)cc5)cc4C3)cc2)co1 (centres unmarked)
Response: 187 to 189 °C
